- assayed.target: TNF-a receptor (TNF-R1 reporter cells) (Homo sapiens)
- Construct: development described in WO2022125865A2
- run.description: TNF-a-receptor GFP reporter cell screen
- condition.details: reducing TNF-a-receptor reporter activities; GFP percentage by microscope, 48 hours
attribute.measured: IC50 (µM)

INSERT INTO results (compound, attribute_measured, readout_value) VALUES
  ('COc1ccc(NC(=O)C(NS(=O)(=O)c2cccc3nsnc23)c2ccccc2)cc1 (stereo not shown)', 'IC50', 3.99),
  ('O=C(CSc1c2c(nc3ccccc13)CCC2)Nc1ccc(F)cc1', 'IC50', 8.91),
  ('Oc1cccc(CN2CCCC(NCc3cc(-c4ccccc4)no3)C2)c1 (stereo not shown)', 'IC50', 0.823),
  ('O=C(CSC1=Nc2ccccc2N=C(c2ccc(F)cc2)C1)NCc1ccc(F)cc1', 'IC50', 5.3),
  ('COc1cc(CN2CCCC(CNC(=O)COc3ccccc3OC)C2)ccc1F (stereo not shown)', 'IC50', 0.791),
  ('O=C(NC1(CN2CCOCC2)CCCCC1)c1ccccc1N1CCOCC1', 'IC50', 2.16),
  ('CC(C)Oc1ccccc1-c1cccc(C(=O)NCCc2nncn2C)c1', 'IC50', 2.34),
  ('COc1cc(C(=O)NCCc2csc3nc(-c4ccccc4C)nn23)cc(OC)c1OC', 'IC50', 4.85),
  ('O=c1ccc(-c2ccccc2)nn1Cc1c(F)cccc1Cl', 'IC50', 7.46),
  ('CCc1ccccc1NC(=O)CN1C(=O)COc2ccc(S(=O)(=O)Nc3ccccc3)cc21', 'IC50', 1.58);
